Reported IC50 is given for each of the following compounds.
# TARGET ENTITY: Recombinant JAK2 (Homo sapiens, UniProt O60674)
# Construct: purchased Carna Biosciences
# Sequence (O60674 whole entry): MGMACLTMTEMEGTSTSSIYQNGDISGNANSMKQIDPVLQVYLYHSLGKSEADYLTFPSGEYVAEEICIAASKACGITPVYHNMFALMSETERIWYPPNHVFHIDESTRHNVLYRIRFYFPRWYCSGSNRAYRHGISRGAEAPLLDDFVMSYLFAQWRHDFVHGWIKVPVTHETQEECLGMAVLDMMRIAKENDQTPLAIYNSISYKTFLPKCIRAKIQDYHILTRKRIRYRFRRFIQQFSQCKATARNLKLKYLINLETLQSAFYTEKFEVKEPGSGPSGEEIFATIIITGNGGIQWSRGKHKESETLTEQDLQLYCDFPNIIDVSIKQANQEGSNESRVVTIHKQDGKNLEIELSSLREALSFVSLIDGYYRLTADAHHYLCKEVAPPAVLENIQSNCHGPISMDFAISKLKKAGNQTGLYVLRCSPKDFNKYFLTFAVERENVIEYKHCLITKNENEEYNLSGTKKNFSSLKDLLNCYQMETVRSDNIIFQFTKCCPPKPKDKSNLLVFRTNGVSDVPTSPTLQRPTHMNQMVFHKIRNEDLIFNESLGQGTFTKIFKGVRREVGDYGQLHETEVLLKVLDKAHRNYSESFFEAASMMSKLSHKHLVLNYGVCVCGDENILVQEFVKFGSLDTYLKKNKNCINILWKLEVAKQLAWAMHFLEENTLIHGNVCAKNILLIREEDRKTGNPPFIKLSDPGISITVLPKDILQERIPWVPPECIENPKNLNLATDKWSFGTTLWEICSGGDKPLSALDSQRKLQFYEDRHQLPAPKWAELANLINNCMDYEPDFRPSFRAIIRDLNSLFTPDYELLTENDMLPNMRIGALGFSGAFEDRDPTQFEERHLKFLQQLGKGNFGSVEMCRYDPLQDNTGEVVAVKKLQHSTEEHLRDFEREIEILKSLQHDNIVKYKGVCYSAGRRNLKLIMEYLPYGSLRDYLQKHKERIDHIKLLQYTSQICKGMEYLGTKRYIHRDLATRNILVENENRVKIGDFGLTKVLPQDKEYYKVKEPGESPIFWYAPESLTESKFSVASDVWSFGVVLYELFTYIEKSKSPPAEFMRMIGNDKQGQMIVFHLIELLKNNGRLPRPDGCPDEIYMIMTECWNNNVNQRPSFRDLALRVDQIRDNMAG
# METHOD NOTES: JAK biochemical assay (LANCE Ultra TR-FRET), JAK2
# RUN PARAMETERS: recombinant JAK2, TR-FRET; read-out: Biochemical Assay (μM) JAK2

- COMPOUND: "CS(=O)(=O)CCNC(=O)N1CCN(c2ccnc3[nH]c(=O)[nH]c23)CC1"
  IC50: "> 10 µM"
- COMPOUND: "CN1CCC([C@@](O)(c2ccc(-n3cc(-c4ccnc5[nH]cnc45)cn3)nc2)C(F)(F)F)C1 (some centres unmarked)"
  IC50: "> 0.03 µM"
- COMPOUND: "CC(CC#N)NC(=O)n1cc(-c2ccnc3[nH]c(=O)[nH]c23)cn1 (centres unmarked) [Example 1053]"
  IC50: "< 1 µM"
- COMPOUND: "COCCC(C#N)NC(=O)n1cc(-c2ccnc3[nH]cnc23)cn1 (centres unmarked)"
  IC50: "> 0.5 µM"
- COMPOUND: "N#CC1CN(C(=O)c2ccc(-n3cc(-c4ccnc5[nH]cnc45)cn3)nc2)C1"
  IC50: "> 0.5 µM"
- COMPOUND: "CC(NC(=O)n1cc(-c2ccnc3[nH]c(=O)[nH]c23)cn1)C(=O)N1CC(C#N)C1 (centres unmarked)"
  IC50: "> 1 µM"
- COMPOUND: "CC(C)N1CCC([C@@](O)(c2ccc(-n3cc(-c4ccnc5[nH]cnc45)cn3)cc2)C(F)(F)F)C1 (some centres unmarked)"
  IC50: "< 0.1 µM"
- COMPOUND: "N#CCNC(=O)n1cc(-c2ccnc3[nH]c(=O)[nH]c23)cn1 [Example 1027]"
  IC50: "0.044 µM"

Values from patent US12516056B2
